Hello, the source for this data is patent US20070048371A1, in case you need it.

assayNotes: Example 2: open-label dose-escalation pharmacokinetic and safety study in children and adolescents with ADHD
Type: in vivo, human
conditions: both sexes, human, plasma, po, 4 mg, Day 28, 4 mg once daily oral; children 6-12 yrs, ADHD patients, N = 14; read-out: Cmax
Description: Objective: The objective of this study was to assess the pharmacokinetics of controlled-release guanfacine after a single 2 mg dose or multiple doses of 2 mg and 4 mg from Table 2. Methods: An open-label, dose-escalation study in male and female children (aged 6-12 years) and adolescents (aged 13-17 years) with ADHD. […] Their electrocardiogram readings (ECGs) were within normal ranges, and their blood pressure measurements were within the 95th percentile for their age, height, and gender. […]

{"smilesText": "N=C(N)NC(=O)Cc1c(Cl)cccc1Cl", "unit": "µg/mL", "Cmax": 0.0101}
